- Tested on: Escherichia coli TOP10
- method-notes: shrunken log2 fold change of peptide-encoding DNA abundance (4.5 h post-induction vs induction); higher = less antimicrobial activity (less host growth inhibition)
- condition: time post-induction: 4.5 h; library: site-saturation at positions 5, 18, 19, 20
Measured shrunken log2 fold change, listed per entry.
measurement-kind: shrunken log2 fold change

>  <sequence-record>
RRIRVRPPRLPRPRPRPHPHPRP

>  <assayed-target>
Escherichia coli TOP10

>  <observed>
-0.161

$$$$
>  <sequence-record>
RRIRTRPPRLPRPRPRPTQNPRP

>  <assayed-target>
Escherichia coli TOP10

>  <observed>
0.385

$$$$
>  <sequence-record>
RRIRQRPPRLPRPRPRPEHKPRP

>  <assayed-target>
Escherichia coli TOP10

>  <observed>
-0.00178

$$$$
>  <sequence-record>
RRIRKRPPRLPRPRPRPRCIPRP

>  <assayed-target>
Escherichia coli TOP10

>  <observed>
-0.187

$$$$
>  <sequence-record>
RRIRFRPPRLPRPRPRPYCLPRP

>  <assayed-target>
Escherichia coli TOP10

>  <observed>
-0.341

$$$$
>  <sequence-record>
RRIRLRPPRLPRPRPRPGNRPRP

>  <assayed-target>
Escherichia coli TOP10

>  <observed>
-1.09

$$$$
>  <sequence-record>
RRIRMRPPRLPRPRPRPNSMPRP

>  <assayed-target>
Escherichia coli TOP10

>  <observed>
-0.22

$$$$
>  <sequence-record>
RRIRIRPPRLPRPRPRPTGKPRP

>  <assayed-target>
Escherichia coli TOP10

>  <observed>
-0.129

$$$$
>  <sequence-record>
RRIRCRPPRLPRPRPRPDFAPRP

>  <assayed-target>
Escherichia coli TOP10

>  <observed>
0.115

$$$$
>  <sequence-record>
RRIRWRPPRLPRPRPRPRSMPRP

>  <assayed-target>
Escherichia coli TOP10

>  <observed>
0.0304

$$$$
>  <sequence-record>
RRIRDRPPRLPRPRPRPHKTPRP

>  <assayed-target>
Escherichia coli TOP10

>  <observed>
-0.0521

$$$$
>  <sequence-record>
RRIRSRPPRLPRPRPRPIPIPRP

>  <assayed-target>
Escherichia coli TOP10

>  <observed>
0.159

$$$$
>  <sequence-record>
RRIRNRPPRLPRPRPRPCTMPRP

>  <assayed-target>
Escherichia coli TOP10

>  <observed>
-0.199

$$$$
>  <sequence-record>
RRIRHRPPRLPRPRPRPQVLPRP

>  <assayed-target>
Escherichia coli TOP10

>  <observed>
-0.0535

$$$$
>  <sequence-record>
RRIRERPPRLPRPRPRPQTTPRP

>  <assayed-target>
Escherichia coli TOP10

>  <observed>
0.0104

$$$$
>  <sequence-record>
RRIRDRPPRLPRPRPRPIMQPRP

>  <assayed-target>
Escherichia coli TOP10

>  <observed>
-0.0521

$$$$
>  <sequence-record>
RRIRARPPRLPRPRPRPYMYPRP

>  <assayed-target>
Escherichia coli TOP10

>  <observed>
-0.635

$$$$
>  <sequence-record>
RRIRTRPPRLPRPRPRPECRPRP

>  <assayed-target>
Escherichia coli TOP10

>  <observed>
0.569

$$$$
>  <sequence-record>
RRIRMRPPRLPRPRPRPHRDPRP

>  <assayed-target>
Escherichia coli TOP10

>  <observed>
0.169

$$$$
>  <sequence-record>
RRIRKRPPRLPRPRPRPDHQPRP

>  <assayed-target>
Escherichia coli TOP10

>  <observed>
-0.0497

$$$$
>  <sequence-record>
RRIRVRPPRLPRPRPRPHWFPRP

>  <assayed-target>
Escherichia coli TOP10

>  <observed>
-0.11

$$$$
>  <sequence-record>
RRIRFRPPRLPRPRPRPECNPRP

>  <assayed-target>
Escherichia coli TOP10

>  <observed>
0.0687

$$$$
>  <sequence-record>
RRIRNRPPRLPRPRPRPTNTPRP

>  <assayed-target>
Escherichia coli TOP10

>  <observed>
-0.34

$$$$
>  <sequence-record>
RRIRSRPPRLPRPRPRPFIDPRP

>  <assayed-target>
Escherichia coli TOP10

>  <observed>
-0.0941

$$$$
>  <sequence-record>
RRIRFRPPRLPRPRPRPDQNPRP

>  <assayed-target>
Escherichia coli TOP10

>  <observed>
-0.203

$$$$
>  <sequence-record>
RRIRKRPPRLPRPRPRPPDMPRP

>  <assayed-target>
Escherichia coli TOP10

>  <observed>
0.469

$$$$
>  <sequence-record>
RRIRERPPRLPRPRPRPWNHPRP

>  <assayed-target>
Escherichia coli TOP10

>  <observed>
-1.48

$$$$
>  <sequence-record>
RRIRHRPPRLPRPRPRPVLHPRP

>  <assayed-target>
Escherichia coli TOP10

>  <observed>
-0.501

$$$$
>  <sequence-record>
RRIRPRPPRLPRPRPRPGNKPRP

>  <assayed-target>
Escherichia coli TOP10

>  <observed>
-0.0476

$$$$
>  <sequence-record>
RRIRPRPPRLPRPRPRPIANPRP

>  <assayed-target>
Escherichia coli TOP10

>  <observed>
-0.12

$$$$
>  <sequence-record>
RRIRDRPPRLPRPRPRPQNIPRP

>  <assayed-target>
Escherichia coli TOP10

>  <observed>
-0.126

$$$$
>  <sequence-record>
RRIRARPPRLPRPRPRPSGRPRP

>  <assayed-target>
Escherichia coli TOP10

>  <observed>
0.0751

$$$$
>  <sequence-record>
RRIRTRPPRLPRPRPRPYKVPRP

>  <assayed-target>
Escherichia coli TOP10

>  <observed>
-1.32

$$$$
>  <sequence-record>
RRIRSRPPRLPRPRPRPKDPPRP

>  <assayed-target>
Escherichia coli TOP10

>  <observed>
0.226

$$$$
>  <sequence-record>
RRIRHRPPRLPRPRPRPACDPRP

>  <assayed-target>
Escherichia coli TOP10

>  <observed>
0.285

$$$$
>  <sequence-record>
RRIRARPPRLPRPRPRPFANPRP

>  <assayed-target>
Escherichia coli TOP10

>  <observed>
0.0657

$$$$
>  <sequence-record>
RRIRCRPPRLPRPRPRPPQWPRP

>  <assayed-target>
Escherichia coli TOP10

>  <observed>
0.446

$$$$
>  <sequence-record>
RRIRKRPPRLPRPRPRPQHFPRP

>  <assayed-target>
Escherichia coli TOP10

>  <observed>
0.0698

$$$$
>  <sequence-record>
RRIRQRPPRLPRPRPRPEHMPRP

>  <assayed-target>
Escherichia coli TOP10

>  <observed>
-0.0877

$$$$
>  <sequence-record>
RRIRWRPPRLPRPRPRPFHQPRP

>  <assayed-target>
Escherichia coli TOP10

>  <observed>
-0.259

$$$$
>  <sequence-record>
RRIRWRPPRLPRPRPRPYPWPRP

>  <assayed-target>
Escherichia coli TOP10

>  <observed>
-0.156

$$$$
>  <sequence-record>
RRIRQRPPRLPRPRPRPPCKPRP

>  <assayed-target>
Escherichia coli TOP10

>  <observed>
0.0303

$$$$
>  <sequence-record>
RRIRARPPRLPRPRPRPIGEPRP

>  <assayed-target>
Escherichia coli TOP10

>  <observed>
-0.0613

$$$$
>  <sequence-record>
RRIRCRPPRLPRPRPRPMQEPRP

>  <assayed-target>
Escherichia coli TOP10

>  <observed>
-0.0194

$$$$
>  <sequence-record>
RRIRSRPPRLPRPRPRPGAFPRP

>  <assayed-target>
Escherichia coli TOP10

>  <observed>
0.0905

$$$$
>  <sequence-record>
RRIRHRPPRLPRPRPRPYLDPRP

>  <assayed-target>
Escherichia coli TOP10

>  <observed>
0.00552

$$$$
>  <sequence-record>
RRIRIRPPRLPRPRPRPTGAPRP

>  <assayed-target>
Escherichia coli TOP10

>  <observed>
-0.0341

$$$$
>  <sequence-record>
RRIRDRPPRLPRPRPRPIYYPRP

>  <assayed-target>
Escherichia coli TOP10

>  <observed>
-0.253

$$$$
>  <sequence-record>
RRIRSRPPRLPRPRPRPWDHPRP

>  <assayed-target>
Escherichia coli TOP10

>  <observed>
-0.143

$$$$
>  <sequence-record>
RRIRVRPPRLPRPRPRPAGCPRP

>  <assayed-target>
Escherichia coli TOP10

>  <observed>
0.459

$$$$
>  <sequence-record>
RRIRIRPPRLPRPRPRPRYQPRP

>  <assayed-target>
Escherichia coli TOP10

>  <observed>
0.00748

$$$$
>  <sequence-record>
RRIRDRPPRLPRPRPRPRVNPRP

>  <assayed-target>
Escherichia coli TOP10

>  <observed>
-0.149

$$$$
>  <sequence-record>
RRIRLRPPRLPRPRPRPNFTPRP

>  <assayed-target>
Escherichia coli TOP10

>  <observed>
-0.501

$$$$
>  <sequence-record>
RRIRIRPPRLPRPRPRPCVLPRP

>  <assayed-target>
Escherichia coli TOP10

>  <observed>
-0.145

$$$$
>  <sequence-record>
RRIRHRPPRLPRPRPRPVDGPRP

>  <assayed-target>
Escherichia coli TOP10

>  <observed>
-0.00557

$$$$
>  <sequence-record>
RRIRERPPRLPRPRPRPSTEPRP

>  <assayed-target>
Escherichia coli TOP10

>  <observed>
0.0386

$$$$
>  <sequence-record>
RRIRGRPPRLPRPRPRPWILPRP

>  <assayed-target>
Escherichia coli TOP10

>  <observed>
0.112

$$$$
>  <sequence-record>
RRIRIRPPRLPRPRPRPVVWPRP

>  <assayed-target>
Escherichia coli TOP10

>  <observed>
0.321

$$$$
>  <sequence-record>
RRIRDRPPRLPRPRPRPYLKPRP

>  <assayed-target>
Escherichia coli TOP10

>  <observed>
-0.443

$$$$
>  <sequence-record>
RRIRARPPRLPRPRPRPDEGPRP

>  <assayed-target>
Escherichia coli TOP10

>  <observed>
0.37

$$$$
>  <sequence-record>
RRIRFRPPRLPRPRPRPETPPRP

>  <assayed-target>
Escherichia coli TOP10

>  <observed>
0.752

$$$$
>  <sequence-record>
RRIRQRPPRLPRPRPRPECDPRP

>  <assayed-target>
Escherichia coli TOP10

>  <observed>
0.0401

$$$$
>  <sequence-record>
RRIRCRPPRLPRPRPRPFAHPRP

>  <assayed-target>
Escherichia coli TOP10;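 also: peptides expressed intracellularly from a pBAD plasmid library in pooled LB shake-flask culture, induced with 0.3% L-arabinose, DNA abundance read by NGS, three biological replicates, DESeq2 with apeglm shrinkage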

>  <observed>
-0.355

$$$$
